- assay details: recombinant barcode read abundance after kanamycin selection (control-corrected) (log10(CPM+1)); higher = more efficient recombination; sequences stand for … in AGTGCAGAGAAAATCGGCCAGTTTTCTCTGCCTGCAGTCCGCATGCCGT…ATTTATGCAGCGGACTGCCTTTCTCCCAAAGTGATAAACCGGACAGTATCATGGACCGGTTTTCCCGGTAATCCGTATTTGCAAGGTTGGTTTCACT; site = the 11-nt target
Each entry below carries its reported recombinant barcode read abundance (log10).
Form rule: numeric answer, no unit written next to it.

Consider the following illustrative entries.
> print(dat)
                                        seq  observed.measurement
1  GAGCCCACTTGGGTTCTAACCTGTTGCCTGT [GAGCCCACTAG_LTGcore_CT_RTGcore_AC] (site GAGCCCACTAG) (LTG core: CT, RTG core: AC)                 0.522
2  GAGTCCTACTGGGTTCTAACCTGTTGCCTAG [GAGTCCTCTAG_LTGcore_AC_RTGcore_CT] (site GAGTCCTCTAG) (LTG core: AC, RTG core: CT)                 0.674
3  ATGTCCCGATGGGTTCTAACCTGTTGCTCTC [ATGTCCCCTGA_LTGcore_GA_RTGcore_GA] (site ATGTCCCCTGA) (LTG core: GA, RTG core: GA)                0.0444
4  GCGCGACCTTGGGTTCTAACCTGTTGCTTAA [GCGCGACCTAA_LTGcore_CT_RTGcore_TT] (site GCGCGACCTAA) (LTG core: CT, RTG core: TT)                 0.166

Exercise: Give the reported value of recombinant barcode read abundance (log10) for this record: GGGCGGACTTGGGTTCTAACCTGTTGCGGGT [GGGCGGACTCC_LTGcore_CT_RTGcore_AC] (site GGGCGGACTCC) (LTG core: CT, RTG core: AC)
Key: 0.273
